test summary: NCI Yeast Anticancer Drug Screen. Data for the rad50 strain (AID 155);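 further: 0% = growth of vehicle-only cultures of the same strain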
test settings: S. cerevisiae rad50 strain growth inhibition; at 50.0 µM; hits give high values
Compounds without any hit were thinned out: in the full panel of roughly 79,000, 15% have a hit.
Assign growth inhibition to each entry below.
I only need the number, in %, no unit after it.

Briefly, growth inhibition measured for "C(=N/NC1=NCCN1)/c1c2ccccc2c(/C=N\NC2=NCCN2)c2ccccc12" : 82.2

The compound listed as "Cc1cccc(/C=N/NC(=S)N(C)CCc2ccccn2)n1" has a reported growth inhibition of 78.6

The measured growth inhibition associated with "c1ccc(N2N=C3N(c4ccccc4)C2N3c2ccccc2)cc1" reads 81

Memo: "S=c1nc(Cl)cc2[nH]c(Cl)cn12" , reported growth inhibition: 78.8

Input Clc1c(Cl)c(Cl)c2c(nnn2C2CCCO2)c1Cl (stereo unspecified) . Output growth inhibition: 78.3

// sample "C/C(=N\NC(=S)NC1CCCC1)c1ccccn1" , its growth inhibition was 79.2
